Provenance of the data: patent US20100099561A1

System: large crabgrass (Digitaria sanguinalis)
Test: Test A preemergence, large crabgrass
Type: in vivo
Details: 125 g ai/ha, 0 to 100 scale (0 no effect, 100 complete control)
QUANTITY: Plant response rating, Crabgrass, Large
Lab note: jot down the number only; don't add units.

See these solved cases before continuing.
**Q:** Look up and state reported Plant response rating, Crabgrass, Large for CC1(C)CC(S(=O)(=O)Cc2c(C(F)(F)F)nc3cccnn3c2=O)=NO1 [Compound 45]
**A:** 20

**Q:** Look up and state reported Plant response rating, Crabgrass, Large for CC1(C)CC([S+]([O-])Cc2c(C(F)(F)F)nc3cccnn3c2=O)=NO1 (centres unmarked) [Compound 46]
**A:** 0

**Q:** Look up and state reported Plant response rating, Crabgrass, Large for CC1(C)CC([S+]([O-])Cc2c(C(F)(F)C(F)(F)F)nc3n(c2=O)CCS3)=NO1 (centres unmarked) [Compound 41]
**A:** 0

Further cases:
**Q:** Look up and state reported Plant response rating, Crabgrass, Large for CCn1c(=O)c(CS(=O)(=O)C2=NOC(C)(C)C2)nc2cccnc21 [Compound 57]
**A:** 40

**Q:** Look up and state reported Plant response rating, Crabgrass, Large for CC1(C)CC([S+]([O-])Cc2c(C(F)(F)F)nc3ccon3c2=O)=NO1 (centres unmarked) [Compound 43]
**A:** 0

**Q:** Look up and state reported Plant response rating, Crabgrass, Large for CC1(C)CC(S(=O)(=O)Cc2c(C(F)(F)F)nc3n(c2=O)CCC3)=NO1 [Compound 11]
**A:** 80

**Q:** Look up and state reported Plant response rating, Crabgrass, Large for CC1(C)CC(S(=O)(=O)Cc2c(C(F)(F)F)nc3n(c2=O)CCCC3)=NO1 [Compound 8]
**A:** 90

**Q:** Look up and state reported Plant response rating, Crabgrass, Large for CC1(C)CC(S(=O)(=O)Cc2c(C(F)(F)Cl)nc3n(c2=O)CCCC3)=NO1 [Compound 30]
**A:** 90
